Sourced from patent US20090181989A1

# Lookup of reported pIC50 keyed by entry
target: human full-length HSP90 (Homo sapiens, UniProt P08238)
Sequence (P08238 whole entry): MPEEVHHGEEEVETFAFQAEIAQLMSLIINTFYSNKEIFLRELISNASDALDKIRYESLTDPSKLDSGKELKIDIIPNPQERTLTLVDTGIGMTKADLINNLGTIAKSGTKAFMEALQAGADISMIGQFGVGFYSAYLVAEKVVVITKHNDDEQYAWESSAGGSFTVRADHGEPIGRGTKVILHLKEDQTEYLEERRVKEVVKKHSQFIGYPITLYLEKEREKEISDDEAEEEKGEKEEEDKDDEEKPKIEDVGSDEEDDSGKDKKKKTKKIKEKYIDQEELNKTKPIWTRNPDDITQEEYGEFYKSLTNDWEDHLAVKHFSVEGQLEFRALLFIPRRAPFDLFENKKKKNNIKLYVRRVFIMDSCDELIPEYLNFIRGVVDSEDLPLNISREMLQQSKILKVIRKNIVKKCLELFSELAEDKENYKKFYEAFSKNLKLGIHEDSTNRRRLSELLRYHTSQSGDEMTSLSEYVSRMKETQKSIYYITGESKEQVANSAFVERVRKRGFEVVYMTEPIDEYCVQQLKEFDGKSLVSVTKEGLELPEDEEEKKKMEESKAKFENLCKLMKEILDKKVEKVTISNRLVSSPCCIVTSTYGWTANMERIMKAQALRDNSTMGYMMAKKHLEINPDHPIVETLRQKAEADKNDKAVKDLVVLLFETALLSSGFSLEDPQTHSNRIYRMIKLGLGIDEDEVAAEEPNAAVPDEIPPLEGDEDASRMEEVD
pIC50: −log10 of the molar value.

The recorded pIC50 with human full-length HSP90 (Homo sapiens, UniProt P08238) for CSc1nc(-c2ccc(Cl)cc2C)c2nc[nH]c2n1 [Example 19] was > 5.00

The recorded pIC50 with human full-length HSP90 (Homo sapiens, UniProt P08238) for O=C1CCCN1CCOc1cc(-c2nc(Cl)nc3[nH]cnc23)c(Cl)cc1Cl [Example 37] was > 5.00

The recorded pIC50 with human full-length HSP90 (Homo sapiens, UniProt P08238) for Clc1nc(-c2cc(OCCN3CCCC3)c(Cl)cc2Cl)c2nc[nH]c2n1 [Example 36] was > 5.00

Turning now to a further record.
The recorded pIC50 with human full-length HSP90 (Homo sapiens, UniProt P08238) for CCN(CC)CCOc1cc(-c2nc(SC)nc3[nH]cnc23)c(Cl)cc1C [Example 29] was > 5.00
